- assayText: Pharmacokinetics of pamiparib in plasma (combination with TMZ)
- Type: in vivo, human
- conditions: oral; pamiparib 60 mg BID with TMZ; human plasma; n/N 20/20; read-out: Cmax – mean (SD)
assayReadout: Cmax (ng/mL)
Just the number in ng/mL, nothing appended.

Challenge: Please look up its Cmax: `C[C@]12CCCN1CC1=NNC(=O)c3cc(F)cc4[nH]c2c1c34`
Response given: 2010

====

- assayText: Pharmacokinetics of pamiparib in plasma (combination with TMZ)
- Assay type: in vivo, human
- conditions: human, plasma, oral, cycle 1 Day 15, combination with TMZ; read-out: geometric mean pamiparib concentration at 2 h post dose
assayReadout: concentration at 2 h
Could you kindly put the unit after your number?

Challenge: What value of concentration at 2 h has been recorded for this entry: C[C@]12CCCN1CC1=NNC(=O)c3cc(F)cc4[nH]c2c1c34 [pamiparib, Pamiparib]
Response given: 3480 ng/mL

====

- assayText: Pharmacokinetics of TMZ in plasma (combination with pamiparib)
- Assay type: in vivo
- conditions: human, po, cycle 1 Day 1, 120-mg dose, read-out: mean plasma concentration of TMZ 1 h after oral administration
assayReadout: concentration at 1 h (µg/mL)
# output: bare number, implied unit µg/mL

Challenge: // concentration at 1 h lookup, key: Cn1nnc2c(C(N)=O)ncn2c1=O [TMZ, Temozolomide]
Response given: 1.51

====

- assayText: Pharmacokinetics of pamiparib in plasma (combination with TMZ)
- Format: in vivo, human
- conditions: oral; pamiparib 60 mg BID with TMZ; human plasma; n/N 20/20; read-out: Tmax – mean (SD)
assayReadout: Tmax (h)
Just the number in h, nothing appended.

Challenge: For the compound `C[C@]12CCCN1CC1=NNC(=O)c3cc(F)cc4[nH]c2c1c34` , what Tmax is on record?
Response given: 4

====

- assayText: Pharmacokinetics of TMZ in plasma (combination with pamiparib)
- Type: in vivo
- conditions: human, po, cycle 1 Day 1, 20-mg dose, read-out: mean plasma concentration of TMZ 1 h after oral administration
assayReadout: concentration at 1 h (ng/mL)
Give the quantity in ng/mL, number only.

Challenge: Need concentration at 1 h, item Cn1nnc2c(C(N)=O)ncn2c1=O [TMZ, Temozolomide]
Response given: 338

====

- assayText: Pharmacokinetics of pamiparib in plasma (combination with TMZ)
- Format: in vivo, human
- conditions: human, plasma, oral, cycle 1 Day 1, combination with TMZ; read-out: geometric mean pamiparib concentration at 2 h post dose
assayReadout: concentration at 2 h (ng/mL)
Numeric only. Scale: ng/mL

Challenge: // concentration at 2 h lookup, key: `C[C@]12CCCN1CC1=NNC(=O)c3cc(F)cc4[nH]c2c1c34`
Response given: 1580
